Reported EC50 by item:
# Target or system: 5HT2A receptor (Homo sapiens, UniProt P28223)
# Sequence (P28223 whole entry): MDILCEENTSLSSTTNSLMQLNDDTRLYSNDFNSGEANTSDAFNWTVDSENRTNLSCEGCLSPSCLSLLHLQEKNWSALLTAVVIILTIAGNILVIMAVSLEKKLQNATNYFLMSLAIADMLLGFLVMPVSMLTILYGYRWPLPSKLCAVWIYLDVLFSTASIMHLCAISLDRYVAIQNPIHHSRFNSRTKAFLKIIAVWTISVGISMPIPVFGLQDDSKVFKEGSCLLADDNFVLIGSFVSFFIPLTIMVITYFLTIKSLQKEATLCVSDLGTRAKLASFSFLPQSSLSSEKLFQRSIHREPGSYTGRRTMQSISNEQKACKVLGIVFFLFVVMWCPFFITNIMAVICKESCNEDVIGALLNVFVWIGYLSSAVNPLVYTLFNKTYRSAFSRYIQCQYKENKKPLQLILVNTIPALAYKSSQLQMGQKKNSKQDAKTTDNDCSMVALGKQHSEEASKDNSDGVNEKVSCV
# Protocol notes: cell-based
# Design: expressed in transfected cells; host or cells: HEK293T cells, transient co-transfection
# Study conditions: 5HT2A β-Arr EC50 (nM), BRET1 beta-arrestin2 recruitment, HEK293T cells
Property label: EC50 (nM)

# Smiles str, Property label, Endpoint value
data = [
    ("Clc1ccc2c(C3=CCCNC3)c[nH]c2c1", "EC50", 1500),
    ("Cc1cccc2c(C3=CCCN(C)C3)n[nH]c12", "EC50", 432),
    ("CN1CCC=C(c2c[nH]c3cccc(-c4ccccc4)c23)C1", "EC50", 358),
    ("CN1CCC=C(c2c[nH]c3nccc(F)c23)C1", "EC50", 865),
    ("CN1CCC=C(c2n[nH]c3ccc(Cl)cc23)C1", "EC50", 292),
    ("CN1CCC=C(c2c[nH]c3cc(Cl)ccc23)C1", "EC50", 709),
    ("N#Cc1ccc2[nH]nc(C3=CCCNC3)c2c1", "EC50", 354),
    ("N#Cc1ccc2c(C3=CCCNC3)n[nH]c2c1", "EC50", 1710),
    ("Cc1cccc2c(C3=CCCNC3)n[nH]c12", "EC50", 227),
    ("Fc1cccc2c(C3=CCCN(Cc4ccccc4)C3)c[nH]c12", "EC50", 331),
]

====

# Target or system: 5HT2A receptor (Homo sapiens, UniProt P28223)
# Protocol notes: cell-based
# Design: expressed in transfected cells; host or cells: HEK293T cells, transient co-transfection
# Study conditions: HEK-293T, BRET1 beta-arrestin2 recruitment, HEK293T, normalized to 5-HT; read-out: 5HT2A β-Arr Emax (%)
Threshold 50%. Emax below it: y. Emax at it or above: n.

# Compound, Group label
measured = [
    ("Clc1cccc2c(C34CNCC3C4)c[nH]c12 (single isomer, unassigned) [Example 277]", "y"),
    ("C1=C(c2c[nH]c3cccnc23)CNCC1", "n"),
    ("Cc1cccc2c(C3CN(C)C3)c[nH]c12", "y"),
    ("N#Cc1cccc2c(C34CNCCC3C4)n[nH]c12 (stereo not drawn)", "y"),
    ("CCCN1CCC=C(c2c[nH]c3c(CC)cccc23)C1", "y"),
    ("C=CCc1cccc2c(C3=CCCN(C)C3)c[nH]c12", "n"),
    ("Clc1cccc2c(-c3cncnc3)n[nH]c12", "n"),
    ("CCCN1CCC=C(c2c[nH]c3c(F)cccc23)C1", "n"),
    ("Clc1cccc2c(C34CNCC3C4)c[nH]c12 (stereo not drawn) [Example 270]", "y"),
    ("Clc1cccc2c(C3=CCNC3)n[nH]c12", "n"),
    ("N#Cc1cccc2c(C34CNCC3C4)n[nH]c12 (stereo not drawn)", "n"),
    ("CCCN1CCC=C(c2n[nH]c3c(CC)cccc23)C1", "y"),
    ("OCCN1CCC=C(c2n[nH]c3c(Cl)cccc23)C1", "y"),
    ("Cc1ccnc2c(C3=CCCN(C)C3)c[nH]c12", "y"),
    ("Clc1cccc2c(C3=CCNC3)c[nH]c12", "n"),
    ("COC1(c2c[nH]c3c(Cl)cccc23)CNC1", "n"),
    ("Fc1cc(Cl)c2[nH]nc(C34CNCC3C4)c2c1 (stereo not drawn)", "y"),
    ("Fc1cc(Cl)c2[nH]nc(C3=CCCNC3)c2c1", "n"),
    ("CN1CCC=C(c2n[nH]c3c(Cl)cc(F)cc23)C1", "n"),
    ("CCCN1CCC=C(c2c[nH]c3c(C)cccc23)C1", "y"),
]

====

# Target or system: 5HT2A receptor (Homo sapiens)
# Protocol notes: cell-based
# Design: expressed in transfected cells; host or cells: HEK293T cells, transient co-transfection
# Study conditions: HEK-293T, BRET2 Gαq dissociation, HEK293T cells, normalized to 5-HT; read-out: 5HT2A Gq Emax (%)
Each record's class is read off its Emax using these ranges: c1: < 70%; c2: ≥ 70% and < 90%; c3: ≥ 90%

# Smiles str, Group label
data = [
    ("Cc1cccc2c(C3=CCCN(C)C3)n[nH]c12", "c2"),
    ("COc1cccc2c(C3=CCCN(Cc4ccccc4)C3)c[nH]c12", "c1"),
    ("CCc1cccc2c(C3=CCCNC3)n[nH]c12", "c3"),
    ("CCCN1CCC=C(c2n[nH]c3c(Cl)cccc23)C1", "c1"),
    ("CN1CCC=C(c2n[nH]c3c(Cl)cccc23)C1", "c2"),
    ("CC(C)c1ccc2[nH]cc(C3=CCCNC3)c2c1", "c1"),
    ("COc1cccc2[nH]cc(C3=CCCNC3)c12", "c3"),
    ("Clc1ccc2c(C3=CCCNC3)c[nH]c2c1", "c3"),
    ("Clc1cccc2c(C3=CCCN(Cc4ccccc4)C3)c[nH]c12", "c1"),
    ("COc1cccc2[nH]nc(C3=CCCN(C)C3)c12", "c1"),
    ("CCc1cccc2c(C3=CCCN(C)C3)n[nH]c12", "c3"),
    ("Cc1cccc2c(C3=CCCNC3)n[nH]c12", "c2"),
    ("C1=C(c2c[nH]c3ncc(-c4ccccc4)cc23)CNCC1", "c1"),
    ("CCN1CCC=C(c2c[nH]c3c(Cl)cccc23)C1", "c3"),
    ("COc1ccnc2[nH]cc(C3=CCCNC3)c12", "c1"),
    ("CN1CCC=C(c2n[nH]c3ccc(Cl)cc23)C1", "c2"),
    ("CN1CCC=C(c2c[nH]c3cccc(-c4ccccc4)c23)C1", "c1"),
    ("Cc1cc(F)cc2c(C3=CCCN(C)C3)c[nH]c12", "c3"),
    ("CN1CCC=C(c2n[nH]c3ccc(C#N)cc23)C1", "c1"),
    ("CN1CCC=C(c2c[nH]c3ncc(Cl)cc23)C1", "c2"),
    ("Fc1ccc2c(C3=CCCNC3)n[nH]c2c1", "c2"),
    ("CCc1cccc2c(C3=CCCNC3)c(Cl)[nH]c12", "c2"),
    ("Cn1cc(C2=CCCNC2)c2cccnc21", "c1"),
    ("Clc1cnc2[nH]cc(C3=CCCNC3)c2c1", "c2"),
    ("Cc1cccc2[nH]cc(C3=CCCN(C)C3)c12", "c2"),
    ("CN1CCC=C(c2c[nH]c3c(F)cccc23)C1", "c3"),
    ("Clc1ccc2c(C3=CCCNC3)n[nH]c2c1", "c3"),
    ("Clc1ccnc2[nH]cc(C3=CCCNC3)c12", "c2"),
    ("Cc1[nH]c2ccccc2c1C1=CCCNC1", "c1"),
    ("CCc1[nH]c2ccccc2c1C1=CCCN(C)C1", "c1"),
    ("CN1CCC=C(c2n[nH]c3cccc(C#N)c23)C1", "c2"),
    ("CCc1ccc2[nH]cc(C3=CCCN(C)C3)c2c1", "c1"),
    ("CCc1ccc2[nH]cc(C3=CCCNC3)c2c1", "c2"),
    ("CN1CCC=C(c2n[nH]c3cccc(F)c23)C1", "c1"),
    ("Fc1cnc2[nH]cc(C3=CCCNC3)c2c1", "c3"),
    ("Cc1[nH]c2ccccc2c1C1=CCCN(C)C1", "c2"),
    ("CN1CCC=C(c2c[nH]c3c(O)cccc23)C1", "c1"),
]

====

# Target or system: 5HT2A receptor (Homo sapiens, UniProt P28223)
# Protocol notes: cell-based
# Set-up: expressed in transfected cells; host or cells: HEK293T cells, transient co-transfection
# Study conditions: BRET2 Gαq dissociation, HEK293T cells; read-out: 5HT2A Gq EC50

# Smiles str, EC50 (nM)
measured = [
    ("Cc1cccc2c(C3=CCCNC3)n[nH]c12", 52.8),
    ("Fc1ccc2c(C3=CCCNC3)n[nH]c2c1", 11.5),
    ("COc1cccc2[nH]nc(C3=CCCN(C)C3)c12", 91.6),
    ("Clc1ccc2c(C3=CCCNC3)n[nH]c2c1", 38.9),
    ("COc1cccc2[nH]cc(C3=CCCNC3)c12", 3.9),
    ("CN1CCC=C(c2n[nH]c3ccccc23)C1", 3.3),
]

FYI, the data here is from patent US20260265246A1.
